# target desc: Prostaglandin D2 receptor 2 (Homo sapiens)
# Sequence (Q9Y5Y4 whole entry): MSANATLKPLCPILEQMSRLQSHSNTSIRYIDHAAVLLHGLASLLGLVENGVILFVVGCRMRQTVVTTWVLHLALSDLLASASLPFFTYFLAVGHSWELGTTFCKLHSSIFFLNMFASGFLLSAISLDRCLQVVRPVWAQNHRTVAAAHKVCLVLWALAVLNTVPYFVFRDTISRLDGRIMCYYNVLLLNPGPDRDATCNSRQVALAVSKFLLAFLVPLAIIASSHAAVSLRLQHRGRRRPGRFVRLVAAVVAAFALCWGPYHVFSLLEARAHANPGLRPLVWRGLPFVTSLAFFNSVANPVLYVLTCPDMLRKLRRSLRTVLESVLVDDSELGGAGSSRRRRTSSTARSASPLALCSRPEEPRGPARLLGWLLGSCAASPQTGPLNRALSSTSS
# method notes: Displacement of 3H-PGD2 from human CRTH2 receptor expressed in CHO cells
# Type: cell-based
Assignment: determine reported IC50 for the given molecules.
Your answer is read as nM, so omit the unit and give the number.

IN: Any idea what IC50 was measured for O=C(O)Cc1cnc(C(=O)c2ccc(NCc3ccc(Cl)c(Cl)c3)cc2)c2ccccc12 ?
OUT: 6.1

IN: Any idea what IC50 was measured for O=C(O)Cc1cnc(C(=O)c2ccc(NC(=O)c3ccc4ccccc4c3)cc2)c2ccccc12 ?
OUT: 4

IN: Any idea what IC50 was measured for O=C(O)Cc1cnc(C(=O)c2ccc(NC(=O)c3ccccc3Cl)cc2)c2ccccc12 ?
OUT: 45

IN: Any idea what IC50 was measured for O=C(O)Cc1cnc(C(=O)c2ccc(C(=O)Nc3ccc(Cl)c(Cl)c3)cc2)c2ccccc12 ?
OUT: 10

IN: Any idea what IC50 was measured for O=C(O)Cc1cnc(C(=O)c2ccc(NC(=O)c3cccc(Cl)c3)cc2)c2ccccc12 ?
OUT: 3.2

IN: Any idea what IC50 was measured for O=C(O)Cc1cnc(C(=O)c2ccc(NC(=O)c3ccc(Cl)cc3)cc2)c2ccccc12 ?
OUT: 3.4

IN: Any idea what IC50 was measured for O=C(O)Cc1cnc(C(=O)c2ccc(OCc3ccc(Cl)c(Cl)c3)cc2)c2ccccc12 ?
OUT: 38

IN: Any idea what IC50 was measured for O=C(O)Cc1cnc(C(=O)c2ccc(NC(=O)CCc3ccc(Cl)c(Cl)c3)cc2)c2ccccc12 ?
OUT: 13

IN: Any idea what IC50 was measured for O=C(O)Cc1cnc(C(=O)c2ccc(C(=O)NCCc3ccc(Cl)cc3)cc2)c2ccccc12 ?
OUT: 7.8
